Biological target: T1, WT-MBNL1 (truncated, aa 1-260 with HA tag and SV40 NLS) (Homo sapiens, UniProt Q9NR56 SEQ:14-272)
T1 chain: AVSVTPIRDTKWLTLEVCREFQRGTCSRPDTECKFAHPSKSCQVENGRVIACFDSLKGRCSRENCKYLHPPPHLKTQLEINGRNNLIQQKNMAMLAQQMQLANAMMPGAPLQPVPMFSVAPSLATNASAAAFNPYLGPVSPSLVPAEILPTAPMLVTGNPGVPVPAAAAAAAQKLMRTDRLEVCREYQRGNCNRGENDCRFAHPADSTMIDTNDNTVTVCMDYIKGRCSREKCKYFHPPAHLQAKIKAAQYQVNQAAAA
Assay: EMSA; 115 mM NaCl, 20 mM Tris pH 7.5, 5 mM MgCl2, heparin, room temperature; apparent Kd; repeated with another batch in FIG. 10C
Settings: label: 5'-32P; short hairpin (predicted)
Parameter: pKd
Note on units: pKd is unitless, being -log10 of a concentration expressed in mol/L.

Query :: pKd lookup needed for GCUGCUGUUCGCUGCUG (ssRNA) [CUG4] , thanks.
Result :: 6.71
